assay system: T1, Bub3 (S. cerevisiae) (S. cerevisiae, UniProt P26449 1-341)
T1 construct: Bub3, S. cerevisiae, full length (7-bladed WD40 beta-propeller); The methods tell the construct only for Bub3 co-expressed with Bub1; also called ScBub3; purified Bub3; source: Bub3 alone: purified, expression not described
T1 sequence (looked up): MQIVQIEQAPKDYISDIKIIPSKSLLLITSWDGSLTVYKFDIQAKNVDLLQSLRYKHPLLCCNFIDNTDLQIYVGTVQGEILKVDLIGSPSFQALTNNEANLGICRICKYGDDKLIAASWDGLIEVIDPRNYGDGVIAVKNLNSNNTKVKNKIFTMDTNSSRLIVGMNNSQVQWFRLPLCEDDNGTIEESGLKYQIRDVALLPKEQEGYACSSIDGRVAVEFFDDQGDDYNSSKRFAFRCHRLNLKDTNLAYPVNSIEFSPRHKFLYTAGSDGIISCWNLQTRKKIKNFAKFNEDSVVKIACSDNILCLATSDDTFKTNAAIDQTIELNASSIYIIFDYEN
procedure text: ITC; 25°C, MicroCal ITC200; 20 mM Tris pH7.5, 150 mM NaCl, 1 mM DTE; Bub1^289–359–Bub3 in the cell at 30 µM, titrated with thirty-five 2-µl injections of peptide at 400 µM; single-site binding model
condition label: both partners purified
Square brackets hold non-standard residues; d marks the D form. Ends that are not written are not given here. pT = C[C@@H](OP(=O)(O)O)[C@H](N)C(=O)O
attribute measured: Kd

Kd for DPTSMEM[pT]EVFPRSIRQKN (Spc105/Knl1, S. cerevisiae, second MELT repeat with four residues before and eleven after; Met169, Glu170, Met171, P-Thr172, Phe175 are the printed numbers; The end groups are told only for the peptide used for crystallisation; also called MELT^P peptide; Spc105/Knl1 phosphopeptide; source: synthetic peptide, custom made by GeneScript (95% purity)) [MELT2^P peptide (phosphorylated second MELT repeat of Spc105/Knl1)] ?
2 µM
